tested on: BDF1 mice, P388 leukemia ip, median survival T/C; assay: NCI In Vivo Anticancer Drug Screen. Data for tumor model P388 Leukemia (intraperitoneal) in B6D2F1 (BDF1) mice; conditions: endpoint: median survival time; dose: 50.0 mg/kg/injection; schedule: Q01DX009 (ip); vehicle: saline with Tween-80; higher = longer survival
Inconclusive results and toxic doses are left out.
Consider the following compounds; for each one, report its T/C.

Request: Provide value of T/C for this record tested with BDF1 mice, P388 leukemia ip, median survival T/C: `Clc1nc2nc(Cl)n(Cl)c2nc1Cl`
Response: 86 % of control

Request: Provide value of T/C for this record tested with BDF1 mice, P388 leukemia ip, median survival T/C: `Cn1c(=O)c2c(c3ccccc31)Oc1oc3ccc4ccccc4c3c(=O)c1C2`
Response: 91 % of control

Request: Provide value of T/C for this record tested with BDF1 mice, P388 leukemia ip, median survival T/C: `O=S(=O)(c1ccccc1)N1CN2CCN(C2)C1`
Response: 107 % of control

Request: Provide value of T/C for this record tested with BDF1 mice, P388 leukemia ip, median survival T/C: `CCCCCCCN1C=CCC(S(=O)(=O)N2CCOCC2)=C1`
Response: 109 % of control

Request: Provide value of T/C for this record tested with BDF1 mice, P388 leukemia ip, median survival T/C: `CCOc1ccn(CC(=O)c2ccc(Cl)s2)c(=O)n1`
Response: 106 % of control

Request: Provide value of T/C for this record tested with BDF1 mice, P388 leukemia ip, median survival T/C: CCCCCCCCCCCC(=O)CC(SCC)c1ccccc1 (stereo not given)
Response: 96 % of control

Request: Provide value of T/C for this record tested with BDF1 mice, P388 leukemia ip, median survival T/C: CCCCCCCCCCCCCCCC(=O)OCC1OC(n2ccc(N)nc2=O)C(O)C1O (stereo not given)
Response: 90 % of control

Request: Provide value of T/C for this record tested with BDF1 mice, P388 leukemia ip, median survival T/C: `Cc1nc2ccccc2c(=O)n1/N=C/c1ccco1`
Response: 107 % of control

Request: Provide value of T/C for this record tested with BDF1 mice, P388 leukemia ip, median survival T/C: Cn1c(=O)c(S(C)=O)c(O)c2ccccc21 (stereo not given)
Response: 118 % of control

Request: Provide value of T/C for this record tested with BDF1 mice, P388 leukemia ip, median survival T/C: `CC1=CC=CC2=NC(=O)CCN12`
Response: 94 % of control

Request: Provide value of T/C for this record tested with BDF1 mice, P388 leukemia ip, median survival T/C: `CCOc1ccc(NC(=S)N(C)C)cc1`
Response: 90 % of control

Request: Provide value of T/C for this record tested with BDF1 mice, P388 leukemia ip, median survival T/C: `N#Cc1ccc(C(=O)/C=C/c2ccc(OCc3ccccc3)cc2)cc1`
Response: 91 % of control

Request: Provide value of T/C for this record tested with BDF1 mice, P388 leukemia ip, median survival T/C: `Cc1nc2ccccc2n1C[c-]1[c-][c-][c-][c-]1.[Fe].[c-]1[c-][c-][cH-][c-]1`
Response: 91 % of control

Request: Provide value of T/C for this record tested with BDF1 mice, P388 leukemia ip, median survival T/C: C1=C(c2ccccc2)C(c2ccccc2)=C(c2ccccc2)C(c2ccccc2)C(c2ccccc2)=N1 (stereo not given)
Response: 100 % of control

Request: Provide value of T/C for this record tested with BDF1 mice, P388 leukemia ip, median survival T/C: `O=C(CC(O)(C(F)(F)F)C(F)(F)F)c1ccc(Cl)cc1`
Response: 108 % of control

Request: Provide value of T/C for this record tested with BDF1 mice, P388 leukemia ip, median survival T/C: `CCCCOc1ccc(C(=O)NN)cc1`
Response: 115 % of control

Request: Provide value of T/C for this record tested with BDF1 mice, P388 leukemia ip, median survival T/C: `Cc1c2c(cc3c1[nH]c1ccccc13)C=NCC2`
Response: 93 % of control

Request: Provide value of T/C for this record tested with BDF1 mice, P388 leukemia ip, median survival T/C: `CC(C)c1nsc(N)c1C(N)=O`
Response: 92 % of control

Request: Provide value of T/C for this record tested with BDF1 mice, P388 leukemia ip, median survival T/C: `CC(C)(Br)C(=O)c1ccc(Cl)s1`
Response: 101 % of control

Request: Provide value of T/C for this record tested with BDF1 mice, P388 leukemia ip, median survival T/C: `COc1ccc(/C(=N/N)C(C)(C)C)cc1`
Response: 88 % of control
